# System: NCI/ADR-RES
# procedure.text: NCI tumour cell line growth inhibition, 48 h
Activity calls are given as the source filed them. Rule as the data show it: active = GI50 up to about 1.1 µM and inactive = higher.
property.measured: GI50

Solved cases (5 shown):
compound	GI50
COC(c1ccc(C(C)(C)C)cc1)(c1ccc(C(C)(C)C)cc1)c1cc(C(O)(c2cc(C(OC)(c3ccc(C(C)(C)C)cc3)c3ccc(C(C)(C)C)cc3)c(C)cc2C)c2cc(C(OC)(c3ccc(C(C)(C)C)cc3)c3ccc(C(C)(C)C)cc3)c(C)cc2C)c(C)cc1C	> 100 µM (inactive)
COc1nc(NC2OC(COC(C)=O)C(OC(C)=O)C(OC(C)=O)C2OC(C)=O)c(/N=C/C=N/c2c(NC3OC(COC(C)=O)C(OC(C)=O)C(OC(C)=O)C3OC(C)=O)nc(OC)n(C)c2=O)c(=O)n1C (stereo unspecified)	> 100 µM (inactive)
N=c1oc2c(Cl)cc(Cl)cc2cc1C(=O)Nc1cccc2ccccc12	4.93 µM (inactive)
CC1(C)CC(=O)C2=C(C1)NC(=S)C(C#N)C2c1ccccc1 (stereo unspecified)	> 100 µM (inactive)
CC(=O)OC(Cn1cncn1)(Cn1cncn1)c1ccc(Cl)cc1Cl	> 100 µM (inactive)

From here, focus on the item given below.
Qu. Entry Cc1cc(O)cc2c1c(=O)c1ccccc1n2C , system NCI/ADR-RES: what GI50 was measured?
Ans. 68.1 µM (inactive)

---

List of GI50 values.
# System: HOP-92
# procedure.text: NCI tumour cell line growth inhibition, 48 h
Calls of active or inactive are those of the source. Rule as the data show it: active = GI50 up to about 1.1 µM and inactive = higher.

Solved cases (5 shown):
compound	target.system	GI50
Cc1ccc(S(=O)(=O)N2CCCSCCSCCCSCC2)cc1	HOP-92	> 100 µM (inactive)
COC(=O)C1N=CSCC1(C)O (configuration not stated)	HOP-92	> 100 µM (inactive)
CC(C)C(C(=O)O)N(CC1(O)OCC(O)C(O)C1O)N=O (configuration not stated)	HOP-92	> 100 µM (inactive)
COc1ccc(C(=O)OC2C=COC(C)C2OC(=O)c2ccc(OC)cc2)cc1 (configuration not stated)	HOP-92	17.5 µM (inactive)
CN(C)Cc1nsc(N(C)C)n1	HOP-92	> 100 µM (inactive)

Qu. Recorded GI50 of Cc1ccc(Cl)cc1/N=N/C(=O)NNc1cc(Cl)ccc1C , please.
Ans. 15.5 µM (inactive)

---

# Test system: NCI-H226
# procedure.text: NCI tumour cell line growth inhibition, 48 h
Activity calls are given as the source filed them. Rule as the data show it: active = GI50 up to about 1.1 µM and inactive = higher.
Parameter call: string, one of 1.0 (active), 0.0 (inactive)

Known results for compounds:
compound	target.system	class.name
CCN(CC)CCCNc1ccc2ncn3c4ccc(O)cc4c(=O)c1c23	NCI-H226	1.0
C=CC(C)(C)n1cc(C2=C(O)C(=O)C(c3c(CC=C(C)C)[nH]c4ccccc34)=C(O)C2=O)c2ccccc21	NCI-H226	0.0
COc1ccc(S(=O)(=O)n2c3c(c4ccccc42)[C@@H]2[C@@H](CCCN2C(=O)C[S+]([O-])c2ccc(C)cc2)[C@H](Cl)C3)cc1 (some centres not stated)	NCI-H226	0.0
CC1=NN2C(c3ccc(C)cc3)=CSC2=NC(C)(C)C1	NCI-H226	0.0
CN(C)S(=O)(=O)Nc1nnc(S(N)(=O)=O)s1	NCI-H226	0.0
C#CCOC(=O)C(N)C(C)O (configuration not stated)	NCI-H226	0.0

Qu. Would you mind telling me which call this test gave COC(=O)C1C2OC(C)(C)OC2CN1S(=O)(=O)c1ccc(C)cc1 (configuration not stated) ?
Ans. 1.0

Qu. What do you have for CCOC(=O)N[C@H]1CCc2cc(OC)c(OC)c(OC)c2-c2ccc(SC)c(=O)cc21 ?
Ans. 1.0

Qu. What do you have for CC(=O)CC(O)(C(F)(F)Cl)C(F)(Cl)Cl (configuration not stated) ?
Ans. 0.0

Qu. What do you have for CC1C(=O)C(C)C(c2ccccc2)N(N=O)C1c1ccccc1 (configuration not stated) ?
Ans. 0.0
